tested on: U2OS; experiment: cell viability relative to DMSO; higher = less toxic; details: 72 h; 10000 nM
Counter-ions that a name gives are not always drawn.
Response field label: string, one of T (cell viability strictly below 90%) or F.

>  <MOLECULE>
COC(=O)C1=C(C)NC(C)=C(C(=O)OC2CCCN(Cc3ccccc3)C2)C1c1cccc([N+](=O)[O-])c1 (stereo not drawn) [benidipine]

>  <LABEL_CLASS>
T

$$$$
>  <MOLECULE>
C#C[C@]1(O)CC[C@H]2[C@@H]3CCc4cc(OC5CCCC5)ccc4[C@H]3CC[C@@]21C [quinestrol]

>  <LABEL_CLASS>
F

$$$$
>  <MOLECULE>
CCn1c(=O)n(C2=C(CO)CN(CC3CCCCCCC3)CC2)c2ccccc21 [trap-101]

>  <LABEL_CLASS>
F

$$$$
>  <MOLECULE>
Cc1cc(OCc2nnc(SC3CCCC3)n2-c2cccnc2)ccc1-c1ccc(S(C)(=O)=O)cc1 [NMS-873]

>  <LABEL_CLASS>
T

$$$$
>  <MOLECULE>
COC(=O)c1ccc2c(c1)NC(=O)/C2=C(\Nc1ccc(N(C)C(=O)CN2CCN(C)CC2)cc1)c1ccccc1 [nintedanib]

>  <LABEL_CLASS>
F

$$$$
>  <MOLECULE>
CC12CCC(C(Br)C1=O)C2(C)C (stereo not drawn) [3-bromocamphor]

>  <LABEL_CLASS>
F

$$$$
>  <MOLECULE>
C[C@]12C=CC(=O)C=C1CC[C@@H]1[C@@H]2[C@@H](O)C[C@@]2(C)[C@H]1CC[C@]2(O)C(=O)COC(=O)CCC(=O)O [prednisolone-hemisuccinate]

>  <LABEL_CLASS>
F

$$$$
>  <MOLECULE>
CC(=O)NC1CCSC1=O (stereo not drawn) [citiolone]

>  <LABEL_CLASS>
F

$$$$
>  <MOLECULE>
CC(C)(C)NCC(O)c1cc(Cl)c(N)c(Cl)c1 (stereo not drawn) [clenbuterol]

>  <LABEL_CLASS>
F

$$$$
>  <MOLECULE>
CCCN1CCO[C@@H]2c3cc(O)ccc3OC[C@H]21

>  <LABEL_CLASS>
F

$$$$
>  <MOLECULE>
CCc1c(O)cc(O)c(C(=O)c2ccc(OCCN3CCOCC3)c(OC)c2)c1CC(=O)N(CCOC)CCOC [KW-2478]

>  <LABEL_CLASS>
T

$$$$
>  <MOLECULE>
CC(C)n1cnc2c(NCCc3ccc(O)cc3)nc(-c3csc4ccccc34)nc21 [stemregenin-1]

>  <LABEL_CLASS>
T

$$$$
>  <MOLECULE>
CN(C)c1ccc(C(=C2C=CC(=[N+](C)C)C=C2)c2ccc(N(C)C)cc2)cc1 [crystal-violet]

>  <LABEL_CLASS>
T

$$$$
>  <MOLECULE>
CN1[C@@H]2CC[C@H]1C[C@@H](OC(=O)C(CO)c1ccccc1)C2 (stereo partly drawn) [ATROPINE SULFATE]

>  <LABEL_CLASS>
F

$$$$
>  <MOLECULE>
CCN(CC)CCNC(=O)c1ccccc1I [I-BZA2]

>  <LABEL_CLASS>
F

$$$$
>  <MOLECULE>
COc1cc2nc(N3CCC(N4CCCCC4)CC3)nc(NC3CCCCCC3)c2cc1OC [C-021]

>  <LABEL_CLASS>
T

$$$$
>  <MOLECULE>
O=C(c1ccc(CN2CCOCC2)cc1)N1CCN(C2CC2)CC1 [bavisant]

>  <LABEL_CLASS>
F

$$$$
